experiment: ATG_AP_2_CIS: Attagene CIS-FACTORIAL HepG2 Assay for human Activator Protein 2 (AP-2) (AID 2282932); details: HepG2 AP-2 cis-reporter, Attagene transcription factor profiling; actives raise or lower the signal
Activity calls are given as the source filed them. Rule for the calls: active = hit-call score of the fitted dose curve at least 0.9, where 1 is the maximum; inactive = score below 0.9.
Would you mind answering with one of these outcomes? active, inactive

Please review the entries below; each comes with its answer.
Ask | Which result was noted for this molecule in the test: CC(C)C1CCC(Cc2ccc(Cl)cc2)C1(O)Cn1cncn1 (centres undefined)
Reply | inactive

Ask | Name the outcome recorded for `ClC(Cl)=C(Cl)C(Cl)=C(Cl)Cl` in the assay.
Reply | active

Ask | Just curious, what result did CCCCC(CC)CO[N+](=O)[O-] (centres undefined) get here?
Reply | inactive

Ask | Please indicate how the test categorized `C=CCc1ccc(OC)cc1` .
Reply | inactive

Ask | Please share the test call associated with `CC(C)CCCCCCOC(=O)c1ccccc1C(=O)OCCCCCCC(C)C` .
Reply | inactive

***
Ask | Please state the recorded outcome for this molecule: Clc1ccc(COC(Cn2ccnc2)c2ccc(Cl)cc2Cl)cc1 (centres undefined)
Reply | inactive

Ask | Identify the outcome logged in this assay for the molecule shown: `CCCCCCCCc1ccc(O)cc1`
Reply | inactive

Ask | Returns: the outcome recorded for CCC(=O)C(CC(C)N(C)C)(c1ccccc1)c1ccccc1 (centres undefined) in this assay.
Reply | inactive

Ask | For `ClCc1ccccn1` , what call appears in the results of this test?
Reply | inactive

Ask | Recorded test call requested for `CCOC(=O)/C=C(C)/C=C/C[C@@H](C)CCCC(C)C`
Reply | active

Ask | Recorded test outcome, item `c1ccc(N=NNc2ccccc2)cc1`
Reply | inactive

Ask | Fill in: this test's call for `CCN1CCC2(CC1)COc1cc3c(cc12)N(C(=O)c1ccc(-c2ccc(-c4nnc(C)o4)cc2C)cc1)CC3` is ___
Reply | inactive

Ask | Short answer needed: outcome of this test for `N#Cc1ccccn1` ?
Reply | inactive

Ask | Could you check what this test reported for `Cc1ccc2ccccc2c1C` ?
Reply | inactive

Ask | For OCC(O)CCl (centres undefined) , what call appears in the results of this test?
Reply | inactive

Ask | What classification did `CN(C)N=O` end up with in this test?
Reply | inactive

Ask | # fetch the recorded call for `Clc1nc(Cl)nc(Cl)n1` here
Reply | inactive

----------
read-out: Phosphatase and tensin (PTEN), PTEN (gene 5728); assay: LTEA_HepaRG_PTEN: Life Technologies and Expression Analysis (LTEA) Assay for Phosphatase and tensin (PTEN) using HepaRG (AID 2283523); settings: mRNA level, 48 h; actives raise or lower the signal
Calls of active or inactive are those of the source. The calls were made as follows: active = hit-call score of the fitted dose curve at least 0.9, where 1 is the maximum; inactive = score below 0.9.
Would you mind answering with one of these outcomes? active, inactive

Sample answers from the record:
Ask | Call for entry `C[C@@H]1C[C@@H]([C@H](O)CC2CC(=O)NC(=O)C2)C(=O)[C@@H](C)C1` :
Reply | active

Ask | Please let me know the test result on file for `ClCC(Cl)CCl` .
Reply | inactive

Continuing:
Ask | For this molecule, state the assay outcome: `O=[N+]([O-])c1ccc(O)c([N+](=O)[O-])c1`
Reply | active

Ask | Please share the test call associated with `CC(C)(C)CC(C)(C)c1ccc(O)cc1` .
Reply | inactive

Ask | Status in this test for `COc1cc(-c2ccc(N)c(OC)c2)ccc1N` ?
Reply | inactive

Ask | Give the logged outcome of this assay for the following molecule: `Cn1sc(Cl)cc1=O`
Reply | inactive
